subject_of_test: T1, human flt3 on BAF/hflt3 cells (BAF-BO3 cells transfected with human flt3 cDNA) (human, UniProt P36888 27-993)
T1 construct: whole, on cells; also called flt3 Receptor
T1 sequence (looked up): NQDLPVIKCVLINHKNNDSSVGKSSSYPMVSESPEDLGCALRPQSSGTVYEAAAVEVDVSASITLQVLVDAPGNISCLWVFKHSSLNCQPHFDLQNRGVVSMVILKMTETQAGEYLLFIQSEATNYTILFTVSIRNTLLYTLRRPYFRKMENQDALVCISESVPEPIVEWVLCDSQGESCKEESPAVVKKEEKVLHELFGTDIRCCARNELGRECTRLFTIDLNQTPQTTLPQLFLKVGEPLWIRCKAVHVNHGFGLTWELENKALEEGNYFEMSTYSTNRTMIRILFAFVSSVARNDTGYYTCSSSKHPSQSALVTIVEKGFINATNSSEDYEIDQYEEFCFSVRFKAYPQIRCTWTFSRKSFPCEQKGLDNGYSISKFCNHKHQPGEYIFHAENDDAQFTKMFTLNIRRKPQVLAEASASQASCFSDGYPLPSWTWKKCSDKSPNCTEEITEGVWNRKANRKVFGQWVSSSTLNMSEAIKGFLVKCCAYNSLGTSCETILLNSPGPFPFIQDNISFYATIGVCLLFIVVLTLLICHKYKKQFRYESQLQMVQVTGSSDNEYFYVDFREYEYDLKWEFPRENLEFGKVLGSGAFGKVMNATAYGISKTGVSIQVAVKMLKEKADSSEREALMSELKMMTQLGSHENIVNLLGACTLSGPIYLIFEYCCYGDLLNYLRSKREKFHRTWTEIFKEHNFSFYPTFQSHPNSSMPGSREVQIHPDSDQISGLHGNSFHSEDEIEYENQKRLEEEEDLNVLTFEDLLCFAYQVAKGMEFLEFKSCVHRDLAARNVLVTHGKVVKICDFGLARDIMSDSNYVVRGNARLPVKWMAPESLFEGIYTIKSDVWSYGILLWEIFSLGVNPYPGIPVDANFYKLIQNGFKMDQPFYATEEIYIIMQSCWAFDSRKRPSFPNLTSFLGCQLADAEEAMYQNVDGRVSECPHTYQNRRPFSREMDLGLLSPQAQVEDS
assay_text: inhibition of 125I-flt3-L binding to BAF/hflt3 cells, purified protein
Kindly state Kai MUT / Kai Wt for each of the entries shown.

Which Kai MUT / Kai Wt value is on record for flt3-L quadruply substituted mutant L-3H/H8Y/K84E/Q122R (ligand, Constructed by PCR mutagenesis from K84E/Q122R, expressed in yeast and purified) HSGTQDCSFQYSPISSDFAVKIRELSDYLLQDYPVTVASNLQDEELCGGLWRLVLAQRWMERLKTVAGSKMQGLLERVNTEIHFVTECAFQPPPSCLRFVQTNISRLLQETSEQLVALKPWITRRNFARCLELQCQPDSSTLPPPWSPRPLEATAP ?
8.6 ratio to wild type

Please give the result for flt3-L mutant H8Y (ligand, yeast supernatant and purified protein (dimer)) LSGTQDCSFQYSPISSDFAVKIRELSDYLLQDYPVTVASNLQDEELCGGLWRLVLAQRWMERLKTVAGSKMQGLLERVNTEIHFVTKCAFQPPPSCLRFVQTNISRLLQETSEQLVALKPWITRQNFARCLELQCQPDSSTLPPPWSPRPLEATAP too.
2.8 ratio to wild type

Please give the result for flt3-L multiple mutant K84E/Q122R (ligand, also called double mutant K84E/Q122R) LSGTQDCSFQHSPISSDFAVKIRELSDYLLQDYPVTVASNLQDEELCGGLWRLVLAQRWMERLKTVAGSKMQGLLERVNTEIHFVTECAFQPPPSCLRFVQTNISRLLQETSEQLVALKPWITRRNFARCLELQCQPDSSTLPPPWSPRPLEATAP too.
3.4 ratio to wild type

Please give the result for wild type flt3-L (yeast-derived recombinant human flt3 Ligand) (ligand, Secreted from yeast (alpha-factor leader, final plasmid PIXY797); Leu-Ser-Gly stands before Thr1 of the mature protein (80% of chains; 20% begin at Ser); Noncovalent dimer (dimer peak collected); also called WT; 125I-flt3-L (radiolabelled form)) LSGTQDCSFQHSPISSDFAVKIRELSDYLLQDYPVTVASNLQDEELCGGLWRLVLAQRWMERLKTVAGSKMQGLLERVNTEIHFVTKCAFQPPPSCLRFVQTNISRLLQETSEQLVALKPWITRQNFARCLELQCQPDSSTLPPPWSPRPLEATAP too.
1 ratio to wild type
